All figures here come from patent US20250230154A1.

Readings of SHP2 degradation (%) 100 nM for the listed molecules
- tgt: SHP2 protein (Homo sapiens, UniProt Q06124)
- Sequence (Q06124 whole entry): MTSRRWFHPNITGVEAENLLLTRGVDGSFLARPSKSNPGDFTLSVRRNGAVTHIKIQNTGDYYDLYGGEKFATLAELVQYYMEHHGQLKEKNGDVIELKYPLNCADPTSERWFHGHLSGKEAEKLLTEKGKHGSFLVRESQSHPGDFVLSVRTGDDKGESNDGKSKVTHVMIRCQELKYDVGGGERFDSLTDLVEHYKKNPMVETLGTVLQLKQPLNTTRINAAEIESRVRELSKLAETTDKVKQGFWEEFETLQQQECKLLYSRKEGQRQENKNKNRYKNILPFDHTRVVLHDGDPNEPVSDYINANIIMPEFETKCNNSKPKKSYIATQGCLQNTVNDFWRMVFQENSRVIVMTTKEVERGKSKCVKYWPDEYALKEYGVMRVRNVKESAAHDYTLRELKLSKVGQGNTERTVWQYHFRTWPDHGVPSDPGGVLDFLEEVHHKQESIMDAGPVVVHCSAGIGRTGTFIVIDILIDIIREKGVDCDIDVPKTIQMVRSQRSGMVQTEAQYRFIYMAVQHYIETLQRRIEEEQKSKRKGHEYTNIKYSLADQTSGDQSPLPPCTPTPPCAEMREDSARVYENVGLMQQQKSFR
- test: Measurement of SHP2 protein degradation in MV-4-11 cells (western blotting)
- Assay type: cell-based
- Parameters: endogenous in cells; host or cells: MV-4-11
- condition-details: MV-4-11 cells, 100 nM, 24 hours
observed-property: SHP2 degradation (%) 100 nM

>>> recorded_measurement("CC(=O)N[C@H](C(=O)N1C[C@H](O)C[C@H]1C(=O)NCc1ccc(-c2scnc2C)cc1OCCCN1CCN(C(=O)CC(=O)Nc2cccc(Sc3cnc(N4CCC(C)(CN)CC4)cn3)c2Cl)CC1)C(C)(C)C")
"99.4%"
>>> recorded_measurement("CC(=O)N[C@H](C(=O)N1C[C@H](O)C[C@H]1C(=O)NCc1ccc(-c2scnc2C)cc1OCCCC1CCN(C(=O)CC(=O)Nc2cccc(Sc3cnc(N4CCC(C)(CN)CC4)cn3)c2Cl)CC1)C(C)(C)C")
"96.5%"
>>> recorded_measurement("Cc1ncsc1-c1ccc(CNC(=O)[C@@H]2C[C@@H](O)CN2C(=O)[C@@H](NC(=O)C2(F)CC2)C(C)(C)C)c(OCCCC2CCN(C(=O)CC(=O)Nc3cccc(Sc4ncc(N5CCC(C)(CN)CC5)nc4N)c3Cl)CC2)c1")
"95.0%"
>>> recorded_measurement("Cc1ncsc1-c1ccc(CNC(=O)[C@@H]2C[C@@H](O)CN2C(=O)[C@@H](NC(=O)C2(F)CC2)C(C)(C)C)c(OCCOc2cnc(N3CCC(CCCC(=O)Nc4cccc(Sc5cnc(N6CCC(C)(CN)CC6)cn5)c4Cl)CC3)nc2)c1")
"97%"

====

- tgt: SHP2 protein (Homo sapiens)
- test: Measurement of SHP2 protein degradation in MV-4-11 cells (western blotting)
- Format: cell-based
- Set-up: endogenous in cells; host or cells: MV-4-11
- condition-details: MV-4-11 cells, 10 nM, 24 hours
Readings of SHP2 degradation (%) 10 nM for the listed compounds
observed-property: SHP2 degradation (%) 10 nM

>>> recorded_measurement("Cc1ncsc1-c1ccc(CNC(=O)[C@@H]2C[C@@H](O)CN2C(=O)[C@@H](NC(=O)C2(F)CC2)C(C)(C)C)c(OCC2CCN(C(=O)CC(=O)Nc3cccc(Sc4ncc(N5CCC(C)(CN)CC5)nc4N)c3Cl)CC2)c1")
75
>>> recorded_measurement("Cc1ncsc1-c1ccc(CNC(=O)[C@@H]2C[C@@H](O)CN2C(=O)[C@@H](NC(=O)C2(F)CC2)C(C)(C)C)c(OCCN2CCN(C(=O)CC(=O)Nc3cccc(Sc4cnc(N5CCC(C)(CN)CC5)cn4)c3Cl)[C@H](C)C2)c1")
82.5
>>> recorded_measurement("CC(=O)N[C@H](C(=O)N1C[C@H](O)C[C@H]1C(=O)NCc1ccc(-c2scnc2C)cc1OCCCN1CCN(C(=O)CC(=O)Nc2cccc(Sc3cnc(N4CCC(C)(CN)CC4)cn3)c2Cl)CC1)C(C)(C)C")
87.3
>>> recorded_measurement("Cc1ncsc1-c1ccc(CNC(=O)[C@@H]2C[C@@H](O)CN2C(=O)[C@@H](NC(=O)C2(F)CC2)C(C)(C)C)c(OCCC2CCN(C(=O)CC(=O)Nc3cccc(Sc4cnc(N5CCC(C)(N)CC5)cn4)c3Cl)CC2)c1")
77
>>> recorded_measurement("Cc1ncsc1-c1ccc(CNC(=O)[C@@H]2C[C@@H](O)CN2C(=O)[C@@H](NC(=O)C2(F)CC2)C(C)(C)C)c(OCCCN2CCN(CC(=O)Nc3cccc(Sc4cnc(N5CCC(C)(CN)CC5)cn4)c3Cl)C(=O)C2)c1")
92.4
>>> recorded_measurement("Cc1ncsc1-c1ccc(CNC(=O)[C@@H]2C[C@@H](O)CN2C(=O)[C@@H](NC(=O)C2(F)CC2)C(C)(C)C)c(OCCC2CCN(C(=O)C(=O)Nc3cccc(Sc4cnc(N5CCC(C)(CN)CC5)cn4)c3Cl)CC2)c1")
23.5
>>> recorded_measurement("Cc1ncsc1-c1ccc(CNC(=O)[C@@H]2C[C@@H](O)CN2C(=O)[C@@H](NC(=O)C2(F)CC2)C(C)(C)C)c(OC2CC3(CCN(c4cnc(C(=O)Nc5cccc(Sc6cnc(N7CCC(C)(CN)CC7)cn6)c5Cl)nc4)CC3)C2)c1")
9.1
>>> recorded_measurement("Cc1ncsc1-c1ccc(CNC(=O)[C@@H]2C[C@@H](O)CN2C(=O)[C@@H](NC(=O)C2(F)CC2)C(C)(C)C)c(OCCCN2CCC(CC(=O)Nc3cccc(Sc4cnc(N5CCC(C)(N)CC5)cn4)c3Cl)CC2)c1")
39.5
>>> recorded_measurement("Cc1ncsc1-c1ccc(CNC(=O)[C@@H]2C[C@@H](O)CN2C(=O)[C@@H](NC(=O)C2(F)CC2)C(C)(C)C)c(OCCCN2CCC(CC(=O)Nc3cccc(Sc4cnc(N5CC[C@H](CN)C5)cn4)c3Cl)CC2)c1")
"−8.9"

====

- tgt: SHP2 protein (Homo sapiens, UniProt Q06124)
- test: Measurement of SHP2 protein degradation in MV-4-11 cells (western blotting)
- Assay type: cell-based
- Parameters: endogenous in cells; host or cells: MV-4-11
- condition-details: MV-4-11 cells, 1000 nM, 24 hours
observed-property: SHP2 degradation (%) 1000 nM

>>> recorded_measurement("Cc1ncsc1-c1ccc(CNC(=O)[C@@H]2C[C@@H](O)CN2C(=O)[C@@H](NC(=O)C2(F)CC2)C(C)(C)C)c(OCCC2CCN(C(=O)CC(=O)Nc3cccc(Sc4cnc(N5CCC(C)(N)CC5)cn4)c3Cl)CC2)c1")
94
>>> recorded_measurement("CC(=O)N[C@H](C(=O)N1C[C@H](O)C[C@H]1C(=O)NCc1ccc(-c2scnc2C)cc1OCCC1CCN(C(=O)CC(=O)Nc2cccc(Sc3cnc(N4CCC(C)(CN)CC4)cn3)c2Cl)CC1)C(C)(C)C")
93.5
>>> recorded_measurement("Cc1ncsc1-c1ccc(CNC(=O)[C@@H]2C[C@@H](O)CN2C(=O)[C@@H](NC(=O)C2(F)CC2)C(C)(C)C)c(OCCNC(=O)c2cnc(N3CCC(CCCC(=O)Nc4cccc(Sc5cnc(N6CCC(C)(CN)CC6)cn5)c4Cl)CC3)nc2)c1")
97
>>> recorded_measurement("Cc1ncsc1-c1ccc(CNC(=O)[C@@H]2C[C@@H](O)CN2C(=O)[C@@H](NC(=O)C2(F)CC2)C(C)(C)C)c(OCCC2CCN(C(=O)CC(=O)Nc3cccc(Sc4ncc(N5CCC(C)(N)CC5)nc4N)c3Cl)CC2)c1")
93
>>> recorded_measurement("Cc1ncsc1-c1ccc(CNC(=O)[C@@H]2C[C@@H](O)CN2C(=O)[C@@H](NC(=O)C2(F)CC2)C(C)(C)C)c(OCCC2CCN(C(=O)CC(=O)Nc3cccc(Sc4cnc(N5CCC(C)(CN)CC5)cn4)c3Cl)CC2)c1")
93.5
>>> recorded_measurement("Cc1ncsc1-c1ccc(CNC(=O)[C@@H]2C[C@@H](O)CN2C(=O)[C@@H](NC(=O)C2(F)CC2)C(C)(C)C)c(OCCCC2CCN(CCC(=O)Nc3cccc(Sc4cnc(N5CCC(C)(CN)CC5)cn4)c3Cl)CC2)c1")
93.5
>>> recorded_measurement("Cc1ncsc1-c1ccc(CNC(=O)[C@@H]2C[C@@H](O)CN2C(=O)[C@@H](NC(=O)C2(F)CC2)C(C)(C)C)c(OCC2CCN(C(=O)CC(=O)Nc3cccc(Sc4cnc(N5CCC(C)(CN)CC5)cn4)c3Cl)CC2)c1")
97.5
>>> recorded_measurement("Cc1ncsc1-c1ccc(CNC(=O)[C@@H]2C[C@@H](O)CN2C(=O)[C@@H](NC(=O)C2(F)CC2)C(C)(C)C)c(OCCCN2CCC(CC(=O)Nc3cccc(Sc4ncc(N5CCC(C)(N)CC5)nc4N)c3Cl)CC2)c1")
95.6
>>> recorded_measurement("Cc1ncsc1-c1ccc(CNC(=O)[C@@H]2C[C@@H](O)CN2C(=O)[C@@H](NC(=O)C2(F)CC2)C(C)(C)C)c(OCC2CCN(C(=O)CCC(=O)Nc3cccc(Sc4cnc(N5CCC(C)(CN)CC5)cn4)c3Cl)CC2)c1")
95.5
>>> recorded_measurement("Cc1ncsc1-c1ccc(CNC(=O)[C@@H]2C[C@@H](O)CN2C(=O)[C@@H](NC(=O)C2(F)CC2)C(C)(C)C)c(OCCC2CCN(CCC(=O)Nc3cccc(Sc4cnc(N5CCC(C)(CN)CC5)cn4)c3Cl)CC2)c1")
94.5
>>> recorded_measurement("Cc1ncsc1-c1ccc(CNC(=O)[C@@H]2C[C@@H](O)CN2C(=O)[C@@H](NC(=O)C2(F)CC2)C(C)(C)C)c(OCCCN2CCC(CC(=O)Nc3cccc(Sc4cnc(N5CC[C@H](CN)C5)cn4)c3Cl)CC2)c1")
35.9
>>> recorded_measurement("CC(=O)N[C@H](C(=O)N1C[C@H](O)C[C@H]1C(=O)NCc1ccc(-c2scnc2C)cc1OCCN1CCN(C(=O)CC(=O)Nc2cccc(Sc3cnc(N4CCC(C)(CN)CC4)cn3)c2Cl)CC1)C(C)(C)C")
99.7
>>> recorded_measurement("Cc1ncsc1-c1ccc(CNC(=O)[C@@H]2C[C@@H](O)CN2C(=O)[C@@H](NC(=O)C2(F)CC2)C(C)(C)C)c(OCCN2CCN(C(=O)CC(=O)Nc3cccc(Sc4cnc(N5CCC(C)(CN)CC5)cn4)c3Cl)CC2)c1")
94.5
>>> recorded_measurement("Cc1ncsc1-c1ccc(CNC(=O)[C@@H]2C[C@@H](O)CN2C(=O)[C@@H](NC(=O)C2(F)CC2)C(C)(C)C)c(OCCC2CCN(C(=O)CCC(=O)Nc3cccc(Sc4cnc(N5CCC(C)(CN)CC5)cn4)c3Cl)CC2)c1")
93.0
>>> recorded_measurement("Cc1ncsc1-c1ccc(CNC(=O)[C@@H]2C[C@@H](O)CN2C(=O)[C@@H](NC(=O)C2(F)CC2)C(C)(C)C)c(OCCCC2CCN(CC(=O)Nc3cccc(Sc4cnc(N5CCC(C)(CN)CC5)cn4)c3Cl)CC2)c1")
87.5
>>> recorded_measurement("Cc1ncsc1-c1ccc(CNC(=O)[C@@H]2C[C@@H](O)CN2C(=O)[C@@H](NC(=O)C2(F)CC2)C(C)(C)C)c(OCCOc2cnc(N3CCC(CCCC(=O)Nc4cccc(Sc5cnc(N6CCC(C)(CN)CC6)cn5)c4Cl)CC3)nc2)c1")
98
>>> recorded_measurement("Cc1ncsc1-c1ccc(CNC(=O)[C@@H]2C[C@@H](O)CN2C(=O)[C@@H](NC(=O)C2(F)CC2)C(C)(C)C)c(OCCCN2CCN(C(=O)CC(=O)Nc3cccc(Sc4cnc(N5CCC(C)(CN)CC5)cn4)c3Cl)CC2)c1")
95.5
